MIC listing for selected molecules.
test system: Enterobacter cloacae; test: MIC, 2-fold dilution method in micro-well plate, E. cloacae; assay type: cell-based; details: E. cloacae ATCC23355 (as in tables), 37° C., read-out: Minimum Inhibitory Concentration

Molecule: Cl.N[C@H]1CCN(c2cc3c(cc2F)c(=O)c(C(=O)O)cn3-c2ccc(F)cn2)C1
System Tested: Enterobacter cloacae
MIC: 0.078 µg/mL

Molecule: Cl.NC1CCN(c2nc3c(cc2F)c(=O)c(C(=O)O)cn3-c2ccc(F)cn2)C1 (stereo not drawn)
System Tested: Enterobacter cloacae
MIC: 0.156 µg/mL

Molecule: CC1CN(c2nc3c(cc2F)c(=O)c(C(=O)O)cn3-c2ccc(F)cn2)CC(C)N1.Cl (stereo not drawn)
System Tested: Enterobacter cloacae
MIC: 0.625 µg/mL

Molecule: Cl.O=C(O)c1cn(-c2ccncc2F)c2nc(N3CCNCC3)c(F)cc2c1=O
System Tested: Enterobacter cloacae
MIC: 0.625 µg/mL

Molecule: Cc1c(F)c(N2CCNC(C)C2)cc2c1c(=O)c(C(=O)O)cn2-c1ccc(F)cn1.Cl (stereo not drawn)
System Tested: Enterobacter cloacae
MIC: 0.313 µg/mL

Molecule: CC1CN(c2nc3c(cc2F)c(=O)c(C(=O)O)cn3-c2ccc(F)cn2)CCN1.Cl (stereo not drawn)
System Tested: Enterobacter cloacae
MIC: 0.625 µg/mL

Molecule: Cl.NC1CCN(c2c(F)cc3c(=O)c(C(=O)O)cn(-c4ccc(F)cn4)c3c2F)C1 (stereo not drawn)
System Tested: Enterobacter cloacae
MIC: 0.313 µg/mL

Molecule: N[C@H]1CCN(c2cc3c(cc2F)c(=O)c(C(=O)O)cn3-c2ccncc2F)C1
System Tested: Enterobacter cloacae
MIC: 0.156 µg/mL

Molecule: CN1CCN(c2nc3c(cc2F)c(=O)c(C(=O)O)cn3-c2ccc(F)cn2)CC1.Cl
System Tested: Enterobacter cloacae
MIC: 0.313 µg/mL

* * *

assay: Pharmacokinetic properties in ICR mouse, oral and subcutaneous, Bio-Assay (Agar well method); assay type: in vivo; conditions: blood, po, P.O, 40 mg/kg, average of four tests
half-life listing for selected molecules.

Molecule: CN1CCN(c2cc3c(cc2F)c(=O)c(C(=O)O)cn3-c2ccc(F)cn2)CC1.Cl [Example 18]
half-life (h): 3.44
--
Molecule: CN1CCN(c2nc3c(cc2F)c(=O)c(C(=O)O)cn3-c2ccc(F)cn2)CC1.Cl [Example 13]
half-life (h): 8.07
--
Molecule: CC1CN(c2nc3c(cc2F)c(=O)c(C(=O)O)cn3-c2ccc(F)cn2)CCN1.Cl (centres unmarked) [Example 14]
half-life (h): 3.81
--
Molecule: Cc1c(F)c(N2CCN(C)CC2)cc2c1c(=O)c(C(=O)O)cn2-c1ccc(F)cn1.Cl [Example 28]
half-life (h): 7.57
--
Molecule: CC1CN(c2cc3c(cc2F)c(=O)c(C(=O)O)cn3-c2ccc(F)cn2)CCN1.Cl (centres unmarked) [Example 19]
half-life (h): 8.42

* * *

Streptococcus pneumoniae ATCC 6303 data, read-out MIC
Attribute Measured: MIC (µg/mL)

Compound: CC1CN(c2cc3c(cc2F)c(=O)c(C(=O)O)cn3-c2ccc(F)cn2)CC(C)N1.Cl (centres unmarked)
Value Reported: 5
--
Compound: Cc1c(F)c(N2CCN(C)CC2)cc2c1c(=O)c(C(=O)O)cn2-c1ccc(F)cn1.Cl
Value Reported: 10
--
Compound: CC1CN(c2nc3c(cc2F)c(=O)c(C(=O)O)cn3-c2ccncc2F)CCN1.Cl (centres unmarked)
Value Reported: 5
--
Compound: Cl.NC1CCN(c2nc3c(cc2F)c(=O)c(C(=O)O)cn3-c2ccc(F)cn2)C1 (centres unmarked)
Value Reported: 1.25
--
Compound: Cl.NC1CCN(c2cc3c(cc2F)c(=O)c(C(=O)O)cn3-c2ccc(F)cn2)C1 (centres unmarked)
Value Reported: 2.5
--
Compound: CC1CN(c2cc3c(cc2F)c(=O)c(C(=O)O)cn3-c2ccc(F)cn2)CCN1.Cl (centres unmarked)
Value Reported: 5
--
Compound: CN1CCN(c2nc3c(cc2F)c(=O)c(C(=O)O)cn3-c2ccncc2F)CC1.Cl
Value Reported: 5
--
Compound: CC1CN(c2nc3c(cc2F)c(=O)c(C(=O)O)cn3-c2ccc(F)cn2)CC(C)N1.Cl (centres unmarked)
Value Reported: 10

* * *

Shigella sonnei ATCC 25931 data, read-out MIC
Attribute Measured: MIC

Compound: CN1CCN(c2cc3c(cc2F)c(=O)c(C(=O)O)cn3-c2ccc(F)cn2)CC1.Cl
Attribute Measured: MIC
Value Reported: 0.625 µg/mL

Compound: Cl.NC1CCN(c2nc3c(cc2F)c(=O)c(C(=O)O)cn3-c2ccc(F)cn2)C1 (centres unmarked)
Attribute Measured: MIC
Value Reported: 0.02 µg/mL

Compound: CC1CN(c2c(F)cc3c(=O)c(C(=O)O)cn(-c4ccc(F)cn4)c3c2F)CC(C)N1.Cl (centres unmarked)
Attribute Measured: MIC
Value Reported: 0.313 µg/mL

Compound: CC1CN(c2nc3c(cc2F)c(=O)c(C(=O)O)cn3-c2ccc(F)cn2)CCN1.Cl (centres unmarked)
Attribute Measured: MIC
Value Reported: 0.078 µg/mL

Compound: CC1CN(c2cc3c(cc2F)c(=O)c(C(=O)O)cn3-c2ccncc2F)CCN1.Cl (centres unmarked)
Attribute Measured: MIC
Value Reported: 0.625 µg/mL

Compound: Cl.NC1CCN(c2cc3c(cc2F)c(=O)c(C(=O)O)cn3-c2ccncc2F)C1 (centres unmarked)
Attribute Measured: MIC
Value Reported: 0.078 µg/mL

Compound: N[C@H]1CCN(c2cc3c(cc2F)c(=O)c(C(=O)O)cn3-c2ccncc2F)C1
Attribute Measured: MIC
Value Reported: 0.02 µg/mL

Compound: Cl.NC1CCN(c2c(F)cc3c(=O)c(C(=O)O)cn(-c4ccc(F)cn4)c3c2F)C1 (centres unmarked)
Attribute Measured: MIC
Value Reported: 0.005 µg/mL

* * *

Streptococcus pyrogens ATCC 19615 data, read-out MIC

Compound: Cl.NC1CCN(c2cc3c(cc2F)c(=O)c(C(=O)O)cn3-c2ccncc2F)C1 (centres unmarked) [Example 5]
MIC, µg/mL: 5

Compound: Cl.O=C(O)c1cn(-c2ccncc2F)c2cc(N3CCNCC3)c(F)cc2c1=O [Example 1]
MIC, µg/mL: 5

Compound: CN1CCN(c2nc3c(cc2F)c(=O)c(C(=O)O)cn3-c2ccncc2F)CC1.Cl [Example 8]
MIC, µg/mL: 10

Compound: Cl.O=C(O)c1cn(-c2ccc(F)cn2)c2cc(N3CCNCC3)c(F)cc2c1=O [Example 17]
MIC, µg/mL: 5

Compound: CN1CCN(c2cc3c(cc2F)c(=O)c(C(=O)O)cn3-c2ccncc2F)CC1.Cl [Example 2]
MIC, µg/mL: 10

Compound: Cl.O=C(O)c1cn(-c2ccncc2F)c2nc(N3CCNCC3)c(F)cc2c1=O [Example 7]
MIC, µg/mL: 5

Compound: CC1CN(c2c(F)cc3c(=O)c(C(=O)O)cn(-c4ccc(F)cn4)c3c2F)CCN1.Cl (centres unmarked) [Example 25]
MIC, µg/mL: 10

Compound: Cl.N[C@H]1CCN(c2cc3c(cc2F)c(=O)c(C(=O)O)cn3-c2ccc(F)cn2)C1 [Example 22]
MIC, µg/mL: 2.5

* * *

assay: LD50, oral, mice; conditions: mouse, in vivo

Compound: CN1CCN(c2nc3c(cc2F)c(=O)c(C(=O)O)cn3-c2ccc(F)cn2)CC1.Cl [Example 13]
LD50: ~1000 mg/kg
//
Compound: CN1CCN(c2cc3c(cc2F)c(=O)c(C(=O)O)cn3-c2ccc(F)cn2)CC1.Cl [Example 18]
LD50: > 3000 mg/kg

* * *

Streptococcus pyrogens ATCC 19615 data, read-out MIC

Molecule: CC1CN(c2cc3c(cc2F)c(=O)c(C(=O)O)cn3-c2ccncc2F)CCN1.Cl (stereo not shown) [Example 3]
System Tested: Streptococcus pyrogens ATCC 19615
MIC: 10 µg/mL
--
Molecule: CN1CCN(c2c(F)cc3c(=O)c(C(=O)O)cn(-c4ccc(F)cn4)c3c2F)CC1.Cl [Example 24]
System Tested: Streptococcus pyrogens ATCC 19615
MIC: 10 µg/mL
--
Molecule: Cl.O=C(O)c1cn(-c2ccc(F)cn2)c2nc(N3CCNCC3)c(F)cc2c1=O [Example 12]
System Tested: Streptococcus pyrogens ATCC 19615
MIC: 5 µg/mL
--
Molecule: Cc1c(F)c(N2CCN(C)CC2)cc2c1c(=O)c(C(=O)O)cn2-c1ccc(F)cn1.Cl [Example 28]
System Tested: Streptococcus pyrogens ATCC 19615
MIC: 10 µg/mL

* * *

experiment: Pharmacokinetic properties in ICR mouse, oral and subcutaneous, Bio-Assay (Agar well method); format: in vivo; settings: blood, sc, S.C, 40 mg/kg, average of four tests

Compound: Cc1c(F)c(N2CCNC(C)C2)cc2c1c(=O)c(C(=O)O)cn2-c1ccc(F)cn1.Cl (stereo not shown)
Units Label: h
half-life: 2.31
//
Compound: CN1CCN(c2cc3c(cc2F)c(=O)c(C(=O)O)cn3-c2ccc(F)cn2)CC1.Cl
Units Label: h
half-life: 3.15
//
Compound: CC1COc2c(N3CCN(C)CC3)c(F)cc3c(=O)c(C(=O)O)cn1c23 (stereo not shown) [Ofloxacin, reference compound]
Units Label: h
half-life: 0.42
//
Compound: Cc1c(F)c(N2CCN(C)CC2)cc2c1c(=O)c(C(=O)O)cn2-c1ccc(F)cn1.Cl
Units Label: h
half-life: 7.26

Origin of the recorded values: patent US5496947A
